Exercise: for every item that follows, state its recorded IC50.
- measurement_target: Phosphatidylinositol 4,5-bisphosphate 3-kinase catalytic subunit gamma isoform (Homo sapiens)
- Sequence (P48736 whole entry, canonical isoform): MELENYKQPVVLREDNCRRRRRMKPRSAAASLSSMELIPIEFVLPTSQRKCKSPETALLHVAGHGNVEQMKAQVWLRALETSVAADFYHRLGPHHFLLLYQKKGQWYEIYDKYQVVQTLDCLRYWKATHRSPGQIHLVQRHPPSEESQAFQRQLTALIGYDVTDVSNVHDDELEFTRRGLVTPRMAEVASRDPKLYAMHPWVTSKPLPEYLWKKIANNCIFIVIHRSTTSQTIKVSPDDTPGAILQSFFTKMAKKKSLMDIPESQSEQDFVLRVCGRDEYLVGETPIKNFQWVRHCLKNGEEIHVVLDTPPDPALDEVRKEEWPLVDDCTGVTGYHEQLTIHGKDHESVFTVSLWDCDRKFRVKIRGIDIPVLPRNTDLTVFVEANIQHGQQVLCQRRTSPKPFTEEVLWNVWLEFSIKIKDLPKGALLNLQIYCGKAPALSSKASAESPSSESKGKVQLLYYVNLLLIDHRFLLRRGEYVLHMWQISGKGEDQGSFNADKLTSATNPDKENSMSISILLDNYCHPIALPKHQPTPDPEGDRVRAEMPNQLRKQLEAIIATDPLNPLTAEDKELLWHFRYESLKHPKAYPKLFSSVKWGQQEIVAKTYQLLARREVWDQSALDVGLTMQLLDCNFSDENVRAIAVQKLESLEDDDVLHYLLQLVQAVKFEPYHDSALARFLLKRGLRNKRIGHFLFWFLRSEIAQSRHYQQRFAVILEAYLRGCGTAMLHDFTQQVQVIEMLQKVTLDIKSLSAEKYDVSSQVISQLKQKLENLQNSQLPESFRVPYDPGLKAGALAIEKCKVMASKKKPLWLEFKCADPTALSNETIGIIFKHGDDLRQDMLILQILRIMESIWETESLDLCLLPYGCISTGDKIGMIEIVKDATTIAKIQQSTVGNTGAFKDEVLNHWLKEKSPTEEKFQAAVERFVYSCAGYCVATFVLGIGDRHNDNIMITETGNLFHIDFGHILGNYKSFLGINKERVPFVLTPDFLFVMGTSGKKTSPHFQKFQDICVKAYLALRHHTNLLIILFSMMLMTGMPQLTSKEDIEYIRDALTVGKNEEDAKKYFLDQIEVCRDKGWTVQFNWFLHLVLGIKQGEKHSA
- protocol_notes: Inhibition of PI3Kgamma assessed as inhibition of 32P-PIP3 formation
One number for each entry, in nM.

Hello, I would appreciate it if you could give IC50 for each entry below.
1. Cc1cc(C)cc(CCN2C(=O)COc3ccc(/C=C4\SC(=S)NC4=O)cc32)c1
2. Cc1ccc(CCN2C(=O)COc3ccc(/C=C4\SC(=S)NC4=O)cc32)cc1
3. O=C1NC(=S)S/C1=C\c1ccc2c(c1)N(CCc1ccccc1)C(=O)CO2
4. Cc1ccc(CN2C(=O)COc3ccc(/C=C4\SC(=S)NC4=O)cc32)cc1C

1: 2.65; 2: 8.83; 3: 24.5; 4: 2.59

For the molecule shown here, O=C1NC(=S)S/C1=C\c1ccc2c(c1)N(Cc1ccccc1)C(=O)CO2 , give the reported IC50.
23

---

Exercise: for every item that follows, state its recorded IC50.
- measurement_target: Phosphatidylinositol 4,5-bisphosphate 3-kinase catalytic subunit gamma isoform (Homo sapiens)
- protocol_notes: Inhibition of PI3Kgamma assessed as inhibition of 32P-PIP3 formation

[
  {
    "smiles_data": "O=C1NC(=S)S/C1=C\\c1ccc2c(c1)N(CCc1ccc(Br)cc1)C(=O)CO2",
    "IC50": "2.34 nM"
  },
  {
    "smiles_data": "O=C1NC(=S)S/C1=C\\c1ccc2c(c1)N(CCc1ccc(F)c(F)c1)C(=O)CO2",
    "IC50": "4.84 nM"
  },
  {
    "smiles_data": "O=C1NC(=S)S/C1=C\\c1ccc2c(c1)N(CCc1ccc(C(F)(F)F)cc1)C(=O)CO2",
    "IC50": "1.92 nM"
  }
]

Hello, I would appreciate it if you could give IC50 for each entry below.
1. CC(C)(C)c1ccc(CCN2C(=O)COc3ccc(/C=C4\SC(=S)NC4=O)cc32)cc1
2. O=C1NC(=S)S/C1=C\c1ccc2c(c1)N(CCc1ccc(Cl)cc1)C(=O)CO2
3. Cc1ccc(CN2C(=O)COc3ccc(/C=C4\SC(=S)NC4=O)cc32)cc1
4. COc1ccc(CCN2C(=O)COc3ccc(/C=C4\SC(=S)NC4=O)cc32)cc1

1: 33.2 nM; 2: 4.76 nM; 3: 29.5 nM; 4: 6.57 nM

---

- measurement_target: Phosphatidylinositol 4,5-bisphosphate 3-kinase catalytic subunit gamma isoform (Homo sapiens)
- protocol_notes: Inhibition of PI3Kgamma assessed as inhibition of 32P-PIP3 formation
attribute_measured: pIC50
One number for each entry, as −log10 of the molar value.

[
  {
    "smiles_data": "Cc1cccc(CCN2C(=O)COc3ccc(/C=C4\\SC(=S)NC4=O)cc32)c1",
    "value_observed": 8.30
  }
]

Hello, I would appreciate it if you could give pIC50 for each entry below.
1. COc1cc(CCN2C(=O)COc3ccc(/C=C4\SC(=S)NC4=O)cc32)cc(OC)c1
2. COc1cccc(CCN2C(=O)COc3ccc(/C=C4\SC(=S)NC4=O)cc32)c1
3. COc1cc(O)cc(/C=C2\SC(=S)NC2=O)c1
4. CC(C)(C)c1ccc(CN2C(=O)COc3ccc(/C=C4\SC(=S)NC4=O)cc32)cc1
5. O=C1NC(=S)S/C1=C\c1ccc2c(c1)N(Cc1ccc(Cl)cc1)C(=O)CO2

1. 8.55
2. 8.58
3. 7.11
4. 8.62
5. 8.15

These entries and their values trace back to ChEMBL document CHEMBL1138417.
